Biological target: ABL1 (64-515) (Homo sapiens, UniProt P00519)
Construct: 3.5 nM ABL (ABL(64-515), produced in-house from E. coli); His6 followed by a PreScission protease cleavage site (N, cleaved yes); made in house; host or cells: E. coli (BL21 (DE3) according to b733)
Assay: Radio ABL1 (64-515) radiometric filter-binding assay
Type: biochemical
Measured Metric: pIC50
pIC50 is a log-scale quantity: -log10 of the concentration expressed in molar.

Record summary for O=C(Nc1ccc(OC(F)(F)Cl)cc1)c1cnc(N2CC[C@@H](OP(=O)(O)O)C2)c(-c2ccn[nH]2)c1 : reported pIC50 = 8.52

get_value(item= NC[C@@H]1CCN(c2ncc(C(=O)Nc3ccc(OC(F)(F)Cl)cc3)cc2-c2ccn[nH]2)C1 , readout=pIC50) returns 9.00

Measured pIC50, O=C(Nc1ccc(S(F)(F)(F)(F)F)cc1)c1cnc(N2CC[C@@H](O)C2)c(-c2ccn[nH]2)c1 : 8.52

The compound listed as Cc1cn[nH]c1-c1cc(C(=O)Nc2ccc(OC(F)(F)Cl)cc2)cnc1N1CC[C@@H](O)C1 shows pIC50 equal to 8.22

====

Answer each item with its documented GI50.
Target: Ba/F3-BCR-ABL1-T315I cells (Homo sapiens, UniProt P00519, T315I, cells depend on it)
Construct: A similar approach was used to generate Ba/F3 cells that depend on a BCR-ABL1 variant in which threonine 315 is replaced with isoleucine; fused on or other part: P11274 (Breakpoint cluster region protein)
Experiment: Ba/F3-BCR-ABL1-T315I cell proliferation assay
Type: cell-based, murine
Conditions: 48 hours; read-out: Ba/F3-BCR-ABL1-T315I IC50
Field: numeric (nM). Do not append units.

The value of GI50 measured for the compound O=C(Nc1ccc(OC(F)(F)Cl)cc1)c1cnc(N2CC[C@@H](O)C2)c(-c2cc(C(F)(F)F)n[nH]2)c1 turned out to be 227

// field: GI50; key: O=C(Nc1ccc(SC(F)(F)F)cc1)c1cnc(N2CC[C@@H](O)C2)c(-c2ccn[nH]2)c1 ; value = 38

Entry COC(=O)C1CCN(c2ncc(C(=O)Nc3ccc(OC(F)(F)Cl)cc3)cc2-c2ccn[nH]2)C1 (centres unmarked) , GI50 reported as 71

So for Cc1cc(-c2cc(C(=O)Nc3ccc(OC(F)(F)F)cc3)cnc2N2CC[C@@H](O)C2)[nH]n1 , the logged GI50 turned out to be 133

Sure, the documented GI50 for NC[C@@H]1CCN(c2ncc(C(=O)Nc3ccc(OC(F)(F)Cl)cc3)cc2-c2ccn[nH]2)C1 is 149

Data point: O=C(Nc1ccc(OC(F)(F)Cl)cc1)c1cnc(N2CC[C@H](CO)C2)c(-c2ccn[nH]2)c1 ; GI50 = 44

Field GI50 (entry Cc1cn[nH]c1-c1cc(C(=O)Nc2ccc(OC(F)(F)Cl)cc2)cnc1N1CC[C@@H](O)C1 ) reads 32

GI50 recorded for this compound, CC(F)(F)Oc1ccc(NC(=O)c2cnc(N3CC[C@@H](O)C3)c(-c3ccn[nH]3)c2)cc1 , is 715

====

Would you mind telling me the reported pIC50 of each entry?
Biological target: ABL1 (64-515) (Homo sapiens)
Construct: 3.5 nM ABL (ABL(64-515), produced in-house from E. coli); His6 followed by a PreScission protease cleavage site (N, cleaved yes); made in house; host or cells: E. coli (BL21 (DE3) according to b733)
Assay: Radio ABL1 (64-515) radiometric filter-binding assay
Format: biochemical
Please treat pIC50 as minus the base-10 logarithm of the molar concentration.

O=C(Nc1ccc(SC(F)(F)F)c(F)c1)c1cnc(N2CC[C@@H](O)C2)c(-c2ccn[nH]2)c1 yielded pIC50 of 7.96

get_value(item= O=C(Nc1ccc(OC(F)(F)F)c(F)c1)c1cnc(N2CC[C@@H](O)C2)c(-c2ccn[nH]2)c1 , readout=pIC50) returns 8.00

Record O=C(Nc1ccc(C(F)(F)C(F)(F)F)cc1)c1cnc(N2CC[C@@H](O)C2)c(-c2ccn[nH]2)c1 , field pIC50: 7.92

The recorded pIC50 for entry CC(C)[C@H](N)C(=O)O[C@@H]1CCN(c2ncc(C(=O)Nc3ccc(OC(F)(F)Cl)cc3)cc2-c2ccn[nH]2)C1 equals 8.40

Summary for this molecule, O=C(Nc1ccc(SC(F)(F)Cl)cc1)c1cnc(N2CC[C@@H](O)C2)c(-c2ccn[nH]2)c1 : pIC50 is 8.70

CC(F)(F)Oc1ccc(NC(=O)c2cnc(N3CC[C@@H](O)C3)c(-c3ccn[nH]3)c2)cc1 yielded pIC50 of 9.40

# molecule O=C(Nc1ccc(OC(F)(F)Cl)cc1)c1cnc(N2CC[C@@H](O)C2)c(-c2cnn(CCO)c2)c1 ; its pIC50 = 8.05

Lab book: pIC50 of O=C(Nc1ccc(OC(F)(F)F)cc1)c1cnc(N2CC[C@@H](O)C2)c(-c2[nH]ncc2F)c1 noted as 8.15

Record summary for O=C(Nc1ccc(C(F)(F)C(F)(F)Cl)cc1)c1cnc(N2CC[C@@H](O)C2)c(-c2ccn[nH]2)c1 : reported pIC50 = 9.00

Data point: Cn1nccc1-c1cc(C(=O)Nc2ccc(OC(F)(F)Cl)cc2)cnc1N1CC[C@@H](O)C1 ; pIC50 = 8.70

Reported pIC50 for O=C(Nc1ccc(SC(F)(F)F)nc1)c1cnc(N2CC[C@@H](O)C2)c(-c2ccn[nH]2)c1 was 8.52

Entry Cc1cc(-c2cc(C(=O)Nc3ccc(OC(F)(F)Cl)cc3)cnc2N2CC[C@@H](O)C2)[nH]n1 — recorded pIC50 = 8.15

Per the records, this molecule ( Cc1cc(-c2cc(C(=O)Nc3ccc(OC(F)(F)Cl)cc3)ccc2N2CC[C@@H](O)C2)[nH]n1 ) has pIC50 equal to 8.22

Reported pIC50 of O=C(Nc1ccc(OC(F)(F)Cl)cc1)c1cnc(N2CC[C@@H](O)C2)c(-c2cc(C(F)(F)F)n[nH]2)c1 : 7.92

Lab note: measured pIC50 of Cn1cc(-c2cc(C(=O)Nc3ccc(OC(F)(F)F)cc3)cnc2N2CC[C@@H](O)C2)cn1 was 8.52

pIC50 reading for Cn1ccc(-c2cc(C(=O)Nc3ccc(OC(F)(F)Cl)cc3)cnc2N2CC[C@@H](O)C2)n1 : 8.55

// pIC50 lookup, molecule = O=C(Nc1ccc(OC(F)(F)F)c(F)c1)c1cnc(N2CC[C@H](CO)C2)c(-c2ccn[nH]2)c1 , result: 8.00

// field: pIC50; key: O=C(Nc1ccc(OC(F)(F)Cl)cc1)c1ccc(N2CC[C@@H](O)C2)c(-c2ccn[nH]2)c1 ; value = 8.89

Record O=C(Nc1ccc(OC(F)(F)Cl)cc1)c1ccc(N2CC[C@@H](O)C2)c(-c2[nH]ncc2F)c1 . Reported pIC50: 8.30

Entry Cc1cc(-c2cc(C(=O)Nc3ccc(OC(F)(F)F)cc3)cnc2N2CC[C@@H](O)C2)[nH]n1 — recorded pIC50 = 8.40

The reported value for O=C(Nc1ccc(OC(F)(F)C(F)(F)F)cc1)c1cnc(N2CC[C@@H](O)C2)c(-c2ccn[nH]2)c1 in terms of pIC50 is 8.30

// pIC50 value for O=C(Nc1ccc(SC(F)(F)F)cc1)c1cnc(N2CC[C@H](CO)C2)c(-c2ccn[nH]2)c1 : 8.22

Cc1cn[nH]c1-c1cc(C(=O)Nc2ccc(OC(F)(F)F)cc2)cnc1N1CC[C@@H](O)C1 yielded pIC50 of 8.47
